# systemTested: the molecule itself
# testDetails: temperature titration with SDS-PAGE
measurementKind: binding result

OmpCG19W/R92L (natural protein, E. coli, UniProt P06996 22-367, looked up) AEVYNKDGNKLDLYGKVDWLHYFSDNKDVDGDQTYMRLGFKGETQVTDQLTGYGQWEYQIQGNSAENENNSWTRVAFAGLKFQDVGSFDYGLNYGVVYDVTSWTDVLPEFGGDTYGSDNFMQQRGNGFATYRNTDFFGLVDGLNFAVQYQGKNGNPSGEGFTSGVTNNGRDALRQNGDGVGGSITYDYEGFGIGGAISSSKRTDAQNTAAYIGNGDRAETYTGGLKYDANNIYLAAQYTQTYNATRVGSLGWANKAQNFEAVAQYQFDFGLRPSLAYLQSKGKNLGRGYDDEDILKYVDVGATYYFNKNMSTYVDYKINLLDDNQFTRDAGINTDNIVALGLVYQF :: binds
OmpC_(G19W) (natural protein, E. coli, UniProt P06996 22-367, looked up) AEVYNKDGNKLDLYGKVDWLHYFSDNKDVDGDQTYMRLGFKGETQVTDQLTGYGQWEYQIQGNSAENENNSWTRVAFAGLKFQDVGSFDYGRNYGVVYDVTSWTDVLPEFGGDTYGSDNFMQQRGNGFATYRNTDFFGLVDGLNFAVQYQGKNGNPSGEGFTSGVTNNGRDALRQNGDGVGGSITYDYEGFGIGGAISSSKRTDAQNTAAYIGNGDRAETYTGGLKYDANNIYLAAQYTQTYNATRVGSLGWANKAQNFEAVAQYQFDFGLRPSLAYLQSKGKNLGRGYDDEDILKYVDVGATYYFNKNMSTYVDYKINLLDDNQFTRDAGINTDNIVALGLVYQF :: binds
OmpC_(R92L) (natural protein, E. coli, UniProt P06996 22-367, looked up) AEVYNKDGNKLDLYGKVDGLHYFSDNKDVDGDQTYMRLGFKGETQVTDQLTGYGQWEYQIQGNSAENENNSWTRVAFAGLKFQDVGSFDYGLNYGVVYDVTSWTDVLPEFGGDTYGSDNFMQQRGNGFATYRNTDFFGLVDGLNFAVQYQGKNGNPSGEGFTSGVTNNGRDALRQNGDGVGGSITYDYEGFGIGGAISSSKRTDAQNTAAYIGNGDRAETYTGGLKYDANNIYLAAQYTQTYNATRVGSLGWANKAQNFEAVAQYQFDFGLRPSLAYLQSKGKNLGRGYDDEDILKYVDVGATYYFNKNMSTYVDYKINLLDDNQFTRDAGINTDNIVALGLVYQF :: binds

All figures here come from paper doi:10.1101/192500.
